- System: Pseudomonas aeruginosa
- Assay protocol: Antimicrobial activity against Pseudomonas aeruginosa PAO1 by micro broth dilution or agar based method
- Format: functional
Simple rule here: MIC less than 8 µg/mL is Fulfilled, otherwise Not fulfilled.

Compound	Assigned category
NC1COCC1Oc1ccc2ncc(F)c(CCC34CCC(NCc5ccc6c(n5)NC(=O)CO6)(CC3)CO4)c2n1 (stereo not drawn)	Not fulfilled
O=C1COc2ccc(CNC34CCC(CCc5c(F)cnc6ccc(OC7CCC7)nc56)(CC3)OC4)nc2N1	Not fulfilled
COC(=O)CCCCOc1ccc2ncc(F)c(CCC34CCC(NCc5ccc6c(n5)NC(=O)CO6)(CC3)CO4)c2n1	Fulfilled
N[C@H]1COC[C@@H]1Oc1ccc2ncc(F)c(CCC34CCC(NCc5ccc6c(n5)NC(=O)CO6)(CC3)CO4)c2n1	Not fulfilled
O=C1COc2ccc(CNC34CCC(CCc5c(F)cnc6ccc(OC[C@H]7C[C@H]7C(=O)O)nc56)(CC3)OC4)nc2N1 (relative stereo)	Not fulfilled
CCOC(=O)COc1ccc2ncc(F)c(CCC34CCC(NCc5ccc6c(n5)NC(=O)CO6)(CC3)CO4)c2n1	Not fulfilled

----------
- Assay protocol: Half life in C57BL/6 mouse at 2 mg/kg, iv or 5 mg/kg, po
- Format: ADME, organism-based
- Condition set: in vivo

Test smiles	half-life / h
Cl.O=C1COc2ccc(CNC34CCC(CCc5c(F)cnc6ccc(OCCCO)nc56)(CC3)OC4)nc2N1	1.5

----------
// reported MIC per item
- Test system: Escherichia coli
- Assay protocol: Antimicrobial activity against Escherichia coli ATCC 25922 by micro broth dilution or agar based method
- Format: functional

Compound	MIC
NCC(O)COc1ccc2ncc(F)c(CCC34CCC(NCc5ccc6c(n5)NC(=O)CO6)(CC3)CO4)c2n1 (stereo not drawn)	8 µg/mL
O=C1COc2ccc(CNC34CCC(CCc5c(F)cnc6ccc(OCCCCCO)nc56)(CC3)OC4)nc2N1	8 µg/mL
C=CCOc1ccc2ncc(F)c(CCC34CCC(NCc5ccc6c(n5)NC(=O)CO6)(CC3)CO4)c2n1	8 µg/mL
CC(C)CCOc1ccc2ncc(F)c(CCC34CCC(NCc5ccc6c(n5)NC(=O)CO6)(CC3)CO4)c2n1	16 µg/mL
O=C1COc2ccc(CNC34CCC(CCc5c(F)cnc6ccc(OCC(CO)CO)nc56)(CC3)OC4)nc2N1	16 µg/mL
O=C1COc2ccc(CNC34CCC(CCc5c(F)cnc6ccc(OC(F)F)nc56)(CC3)OC4)nc2N1	2 µg/mL
O=C1COc2ccc(CNC34CCC(CCc5c(F)cnc6ccc(OCC7(CO)CC7)nc56)(CC3)OC4)nc2N1	16 µg/mL
NCCOc1ccc2ncc(F)c(CCC34CCC(NCc5ccc6c(n5)NC(=O)CO6)(CC3)CO4)c2n1	1 µg/mL

----------
- System: Pseudomonas aeruginosa
- Assay protocol: Antimicrobial activity against Pseudomonas aeruginosa PAO1 by micro broth dilution or agar based method
- Format: functional

Test smiles	Target of assay	MIC
O=C1COc2ccc(CNC34CCC([C@@H](O)Cc5c(F)cnc6ccc(OCCO)nc56)(CC3)OC4)nc2N1	Pseudomonas aeruginosa	16 µg/mL
CN(C)C(=O)COc1ccc2ncc(F)c(CCC34CCC(NCc5ccc6c(n5)NC(=O)CO6)(CC3)CO4)c2n1	Pseudomonas aeruginosa	16 µg/mL
CCOC(=O)CCCOc1ccc2ncc(F)c(CCC34CCC(NCc5ccc6c(n5)NC(=O)CO6)(CC3)CO4)c2n1	Pseudomonas aeruginosa	8 µg/mL
CC(C)(O)CCOc1ccc2ncc(F)c(CCC34CCC(NCc5ccc6c(n5)NC(=O)CO6)(CC3)CO4)c2n1	Pseudomonas aeruginosa	16 µg/mL
CNC(=O)COc1ccc2ncc(F)c(CCC34CCC(NCc5ccc6c(n5)NC(=O)CO6)(CC3)CO4)c2n1	Pseudomonas aeruginosa	16 µg/mL
NCC1(COc2ccc3ncc(F)c(CCC45CCC(NCc6ccc7c(n6)NC(=O)CO7)(CC4)CO5)c3n2)CC1	Pseudomonas aeruginosa	32 µg/mL
O=C1COc2ccc(CNC34CCC(CCc5c(F)cnc6ccc(OCCc7cc(=O)c(O)c[nH]7)nc56)(CC3)OC4)nc2N1	Pseudomonas aeruginosa	32 µg/mL
N#CCCCOc1ccc2ncc(F)c(CCC34CCC(NCc5ccc6c(n5)NC(=O)CO6)(CC3)CO4)c2n1	Pseudomonas aeruginosa	16 µg/mL
O=C1COc2ccc(CNC34CCC(CCc5c(F)cnc6ccc(OC[C@H]7C[C@@H](O)[C@@H](O)C7)nc56)(CC3)OC4)nc2N1	Pseudomonas aeruginosa	8 µg/mL
O=C1COc2ccc(CNC34CCC(CCc5c(F)cnc6ccc(OC[C@@H]7C[C@@H](O)[C@@H](O)C7)nc56)(CC3)OC4)nc2N1	Pseudomonas aeruginosa	32 µg/mL
